Test system: U-2 OS
Assay: cell painting activity score (Mahalanobis distance from DMSO wells); higher = stronger morphological phenotype
Details: 2.5 µM; 24 h
// reported cell painting activity score per item
Field format: numeric only.

Consider the reported cell painting activity score for these compounds:
compoundStructure | targetOfAssay | cell painting activity score
CC(=O)c1c(O)c(C)c(O)c(Cc2c(O)c3c(c(C(=O)C=Cc4ccccc4)c2O)OC(C)(C)C=C3)c1O | U-2 OS | 4.37
O=C1C(Cl)=C(NCCN2CCOCC2)C(=O)c2ncccc21 | U-2 OS | 14.7
COC(=O)Nc1nc2ccc(C(=O)c3cccs3)cc2[nH]1 | U-2 OS | 21.5
C[C@H](CC[C@@]1(O)O[C@H]2C[C@H]3[C@@H]4CC=C5C[C@@H](O[C@@H]6O[C@H](CO)[C@@H](O[C@@H]7O[C@@H](C)[C@H](O)[C@@H](O)[C@H]7O)[C@H](O)[C@H]6O[C@@H]6O[C@@H](C)[C@H](O)[C@@H](O)[C@H]6O)CC[C@]5(C)[C@H]4CC[C@]3(C)[C@H]2[C@@H]1C)CO[C@@H]1O[C@H](CO)[C@@H](O)[C@H](O)[C@H]1O | U-2 OS | 15.1

What value of measured cell painting activity score is listed for "O=C(CCCCCCC(=O)Nc1ccccc1)NO" ?
12

====

Tested on: U-2 OS
Experiment: relative cell count vs DMSO (cell painting) (fraction of DMSO control); higher = more cells remaining (less cytotoxic)
Conditions: 5 µM; 24 h
measuredQuantity: relative cell count
Field format: numeric only.

Consider the reported relative cell count for these compounds:
compound | relative cell count
CC[C@@]1(O)C(=O)OCc2c1cc1n(c2=O)Cc2cc3ccccc3nc2-1 | 0.379
O=C(OCC)/C(C(OCC)=O)=C\CCCCCCCCCCCCCC | 1.02

Find relative cell count (U-2 OS) for the entry CC(Cc1ccc(O)c(O)c1)C(C)Cc1ccc(O)c(O)c1 (stereo not given)
0.816

Find relative cell count (U-2 OS) for the entry "CC1=C2C(=CO[C@H](C)[C@H]2C)C(=O)C(C(=O)O)=C1O"
0.893

Find relative cell count (U-2 OS) for the entry "C=C1[C@@H](C)[C@H]2[C@H](Cc3ccccc3)NC(=O)[C@]23OC(=O)/C=C/[C@H](O)CCC[C@@H](C)C/C=C/[C@H]3[C@@H]1O"
0.715

====

System: U-2 OS
Experiment: cell painting activity score (Mahalanobis distance from DMSO wells); higher = stronger morphological phenotype
Settings: 1.25 µM; 24 h
Note to self: class = bucket of cell painting activity score, per LOW = under 4, MID = from 4 up to 10, HIGH = 10 and over

Some solved entries appear below for comparison.
compoundStructure | classification
CNc1nc(-c2ccccc2)[n+](-c2ccccc2)s1 | LOW
O=[N+]([O-])c1ccc(-c2nnc(SC3=CS(=O)(=O)c4ccccc43)o2)cc1 | MID
Cl.Nc1ccc(O)c2ccccc12 | MID
C=C(C)[C@@H](CC=C(C)C)C[C@@]12C[C@@H](CC=C(C)C)C(C)(C)[C@@](CC=C(C)C)(C(=O)/C(=C(\O)c3ccc(O)c(O)c3)C1=O)C2=O | MID
S=P(N1CC1)(N1CC1)N1CC1 | LOW

Could you tell me which band "C=C1[C@@H](C)[C@H]2[C@H](Cc3ccccc3)NC(=O)[C@]23[C@H](OC(C)=O)/C=C/[C@@](C)(O)C(=O)[C@@H](C)C/C=C/[C@H]3[C@@H]1O" belongs to?
HIGH

Could you tell me which band "COc1cc2ncnc(Nc3ccc(F)c(Cl)c3)c2cc1NC(=O)/C=C/CN1CCCCC1" belongs to?
HIGH

Could you tell me which band "Cc1cc(-c2ccccc2)cc(C(=O)NNS(=O)(=O)c2ccccc2)c1F" belongs to?
MID

Could you tell me which band "COc1ccc(C[C@H](N)C(=O)N[C@H]2[C@@H](O)[C@H](n3cnc4c(N(C)C)ncnc43)O[C@@H]2CO)cc1" belongs to?
HIGH

Could you tell me which band "COc1ccc(/C=C/C(=O)O[C@@H]2[C@H](O[C@@H]3O[C@@H](C)[C@H](O)[C@@H](O)[C@H]3O)[C@@H](O[C@@H]3O[C@@H](C)[C@H](O[C@@H]4OC[C@@H](O[C@@H]5O[C@H](CO)[C@H](O)[C@H](O)[C@H]5O)[C@H](O)[C@H]4O)[C@@H](O)[C@H]3O)[C@H](OC(=O)[C@]34CCC(C)(C)C[C@H]3C3=CC[C@@H]5[C@@]6(C)C[C@H](O)[C@H](O[C@@H]7O[C@H](CO)[C@@H](O)[C@H](O)[C@H]7O)[C@@](C)(C(=O)O)[C@@H]6CC[C@@]5(C)[C@]3(CO)CC4)O[C@@H]2C)cc1" belongs to?
HIGH

Could you tell me which band "COC(=O)Nc1nc2ccc(C(=O)c3cccs3)cc2[nH]1" belongs to?
HIGH

Could you tell me which band "C=CC(=O)N1CCN(c2ncnc3c(F)c(-c4c(O)cccc4F)c(Cl)cc23)CC1" belongs to?
MID

Could you tell me which band "c1cc(SSc2ccns2)sn1" belongs to?
MID

Could you tell me which band "O=C1CCC(=O)N1c1ccc(O)cc1" belongs to?
LOW

Measured values drawn from the supplement of paper PMC10011410 for this set.
